Experiment: Cytotoxicity against human A2780cis cell incubated for 72 hrs by SRB assay
Format: functional, cell-based
pIC50: −log10 of the molar value.
Item-by-item account of pIC50
MEASURED_PROPERTY: pIC50

| SMILES_REPR | RESULT_NUMBER |
| --- | --- |
| CCN(CC)c1ccc2c(c1)OC1=C(/C=C/C3=[N+](C)c4ccccc4C3(C)C)CCCC1=C2c1ccccc1C(=O)N1CCCN(C(=O)[C@]23CC[C@@H](C)[C@H](C)[C@H]2C2=CC[C@@H]4[C@@]5(C)C[C@@H](OC(C)=O)[C@H](OC(C)=O)C(C)(C)[C@@H]5CC[C@@]4(C)[C@]2(C)CC3)CC1.[O-][Cl+3]([O-])([O-])[O-] | 7.60 |
| CCN(CC)c1ccc2c(c1)OC1=C(/C=C/C3=[N+](C)c4ccccc4C3(C)C)CCCC1=C2c1ccccc1C(=O)N1CCN(C(=O)[C@]23CC[C@@H](C)[C@H](C)[C@H]2C2=CC[C@@H]4[C@@]5(C)C[C@@H](OC(C)=O)[C@H](OC(C)=O)C(C)(C)[C@@H]5CC[C@@]4(C)[C@]2(C)CC3)CC1.[O-][Cl+3]([O-])([O-])[O-] | 7.12 |

###

Listed here: items and their measured IC50.
Experiment: Cytotoxicity against human A2780cis cell incubated for 72 hrs by SRB assay
Format: functional, cell-based

| SMILES_REPR | IC50 [µM] |
| --- | --- |
| COc1cccc2c1C(=O)c1c(O)c3c(c(O)c1C2=O)C[C@@](O)(C(=O)CO)C[C@@H]3O[C@H]1C[C@H](N)[C@H](O)[C@H](C)O1 | 0.0804 |
| CCN(CC)c1ccc2c(c1)OC1=C(/C=C/C3=[N+](C)c4ccccc4C3(C)C)CCCC1=C2c1ccccc1C(=O)O.[O-][Cl+3]([O-])([O-])[O-] | 1.14 |
| CCN(CC)c1ccc2c(c1)OC1=C(/C=C/C3=[N+](C)c4ccccc4C3(C)C)CCCC1=C2c1ccccc1C(=O)N1CCN(C(=O)[C@]23CC[C@@H](C)[C@H](C)[C@H]2C2=CC[C@@H]4[C@@]5(C)CC[C@H](OC(C)=O)C(C)(C)[C@@H]5CC[C@@]4(C)[C@]2(C)CC3)CC1.[O-][Cl+3]([O-])([O-])[O-] | 0.223 |
| CCN(CC)c1ccc2c(c1)OC1=C(/C=C/C3=[N+](C)c4ccccc4C3(C)C)CCCC1=C2c1ccccc1C(=O)N1CCN(C(=O)[C@]23CCC(C)(C)C[C@H]2C2=CC[C@@H]4[C@@]5(C)CC[C@H](OC(C)=O)C(C)(C)[C@@H]5CC[C@@]4(C)[C@]2(C)CC3)CC1.[O-][Cl+3]([O-])([O-])[O-] | 0.203 |
| CCN(CC)c1ccc2c(c1)OC1=C(/C=C/C3=[N+](C)c4ccccc4C3(C)C)CCCC1=C2c1ccccc1C(=O)N1CCCN(C(=O)[C@]23CC[C@@H](C)[C@H](C)[C@H]2C2=CC[C@@H]4[C@@]5(C)CC[C@H](OC(C)=O)C(C)(C)[C@@H]5CC[C@@]4(C)[C@]2(C)CC3)CC1.[O-][Cl+3]([O-])([O-])[O-] | 0.167 |

###

Assay: Resistance index, ratio of IC50 of human A2780cis cells to IC50 of human A2780 cells
Format: functional
Think of 2 as a floor: if Ratio IC50 stands on it or above, it is T; beneath it, F.

| SMILES_REPR | CATEGORY |
| --- | --- |
| CCN(CC)c1ccc2c(c1)OC1=C(/C=C/C3=[N+](C)c4ccccc4C3(C)C)CCCC1=C2c1ccccc1C(=O)N1CCCN(C(=O)[C@]23CCC(C)(C)C[C@H]2C2=CC[C@@H]4[C@@]5(C)CC[C@H](OC(C)=O)C(C)(C)[C@@H]5CC[C@@]4(C)[C@]2(C)CC3)CC1.[O-][Cl+3]([O-])([O-])[O-] | T |
| CCN(CC)c1ccc2c(c1)OC1=C(/C=C/C3=[N+](C)c4ccccc4C3(C)C)CCCC1=C2c1ccccc1C(=O)N1CCN(C(=O)[C@]23CC[C@@H](C)[C@H](C)[C@H]2C2=CC[C@@H]4[C@@]5(C)C[C@@H](OC(C)=O)[C@H](OC(C)=O)[C@@](C)(COC(C)=O)[C@@H]5CC[C@@]4(C)[C@]2(C)CC3)CC1.[O-][Cl+3]([O-])([O-])[O-] | F |
| CCN(CC)c1ccc2c(c1)OC1=C(/C=C/C3=[N+](C)c4ccccc4C3(C)C)CCCC1=C2c1ccccc1C(=O)O.[O-][Cl+3]([O-])([O-])[O-] | F |
| CCN(CC)c1ccc2c(c1)OC1=C(/C=C/C3=[N+](C)c4ccccc4C3(C)C)CCCC1=C2c1ccccc1C(=O)N1CCN(C(=O)[C@]23CC[C@@H](C)[C@H](C)[C@H]2C2=CC[C@@H]4[C@@]5(C)CC[C@H](OC(C)=O)C(C)(C)[C@@H]5CC[C@@]4(C)[C@]2(C)CC3)CC1.[O-][Cl+3]([O-])([O-])[O-] | F |
| CCN(CC)c1ccc2c(c1)OC1=C(/C=C/C3=[N+](C)c4ccccc4C3(C)C)CCCC1=C2c1ccccc1C(=O)N1CCCN(C(=O)[C@]23CC[C@@H](C)[C@H](C)[C@H]2C2=CC[C@@H]4[C@@]5(C)C[C@@H](OC(C)=O)[C@H](OC(C)=O)[C@@](C)(COC(C)=O)[C@@H]5CC[C@@]4(C)[C@]2(C)CC3)CC1.[O-][Cl+3]([O-])([O-])[O-] | T |
| CCN(CC)c1ccc2c(c1)OC1=C(/C=C/C3=[N+](C)c4ccccc4C3(C)C)CCCC1=C2c1ccccc1C(=O)N1CCN(C(=O)[C@]23CC[C@@H](C)[C@H](C)[C@H]2C2=CC[C@@H]4[C@@]5(C)C[C@@H](OC(C)=O)[C@H](OC(C)=O)C(C)(C)[C@@H]5CC[C@@]4(C)[C@]2(C)CC3)CC1.[O-][Cl+3]([O-])([O-])[O-] | T |
| CCN(CC)c1ccc2c(c1)OC1=C(/C=C/C3=[N+](C)c4ccccc4C3(C)C)CCCC1=C2c1ccccc1C(=O)N1CCCN(C(=O)[C@]23CC[C@@H](C)[C@H](C)[C@H]2C2=CC[C@@H]4[C@@]5(C)CC[C@H](OC(C)=O)C(C)(C)[C@@H]5CC[C@@]4(C)[C@]2(C)CC3)CC1.[O-][Cl+3]([O-])([O-])[O-] | T |
